Molecular target: beta-catenin/TCF4 engagement (Homo sapiens, UniProt P35222)
Construct: expressed in transfected cells; host or cells: HEK293
Experiment: Nano-BRET target engagement assay (B-cat-Halo & TCF4-Luc in HEK293 cells)
Assay type: cell-based
Conditions: Abs IC50; read-out: NanoBRET Abs IC50
Measurement Kind: IC50 (µM)

molecule="CC(=O)N1CCC[C@]12CC=CCCCC1(CCCC=CCCCOC(=O)N3CC[C@@](C(=O)N[C@@H](Cc4ccsc4)C(=O)N[C@@H](Cc4csc5ccccc45)C(=O)N[C@@H](Cc4c[nH]cn4)C(N)=O)(C3)NC(=O)[C@H](CC(N)=O)NC(=O)[C@H](Cc3ccccc3)NC(=O)[C@H](C)NC(=O)[C@H](C)NC(=O)[C@H](CN(CC(=O)O)CC(F)(F)F)NC(=O)[C@H](CC(=O)O)NC1=O)NC(=O)[C@H](CC(C)(C)C)NC(=O)[C@H](CC(=O)O)NC2=O (stereo partly shown) [I-770]" assay_target="beta-catenin/TCF4 engagement (Homo sapiens, UniProt P35222)" recorded_result=13.7

###

Molecular target: full-length beta-Catenin (Uniprot ID P35222) (Homo sapiens, UniProt P35222)
Construct: 10 nM full-length beta-Catenin (Uniprot ID P35222)
Assay: Fluorescence polarization IC50 (beta-catenin / 5FAM-TCF4 10-53 competition)
Assay type: binding
Settings: fluorescence polarization; read-out: beta-Catenin FP IC50
pIC50: −log10 of the molar value.
Measurement Kind: pIC50

molecule="CC(=O)N1CCC[C@]12CC=CCCCC1(CCCC=CCCCOC(=O)N3CC[C@@](C(=O)N[C@@H](Cc4ccccc4C(F)(F)F)C(=O)N[C@@H](Cc4csc5c(Cl)cccc45)C(=O)N[C@@H](CCC(N)=O)C(N)=O)(C3)NC(=O)[C@H](CC(C)C)NC(=O)[C@H](Cc3ccccc3)NC(=O)[C@H](C)NC(=O)[C@H](C)NC(=O)[C@H](Cc3cccc(C(=O)O)c3)NC(=O)[C@H](CC(=O)O)NC1=O)NC(=O)[C@H](CC(C)(C)C)NC(=O)[C@H](CC(=O)O)NC2=O (some centres unmarked) [I-2486]" recorded_result=7.47
molecule="CC(=O)N1CCC[C@H]1C(=O)N[C@]1(C)CCCC=CCCCC2(CCCC=CCCCOC(=O)N3CC[C@@](C(=O)N[C@@H](Cc4ccccc4C(F)(F)F)C(=O)N[C@@H](Cc4csc5ccccc45)C(=O)N[C@@H](CCC(N)=O)C(N)=O)(C3)NC(=O)[C@H](CC(C)C)NC(=O)[C@H](Cc3ccccc3)NC(=O)[C@H](C)NC(=O)[C@H](C)NC(=O)[C@H](Cc3cccc(C(=O)O)c3)NC(=O)[C@H](CC(=O)O)NC2=O)NC(=O)[C@H](CC(C)(C)C)NC(=O)[C@H](CC(=O)O)NC1=O (some centres unmarked) [I-2567]" recorded_result=6.28
molecule="CC(=O)N1CCC[C@]12CC=CCCCC1(CCCC=CCCCOC(=O)N3CC[C@@](C(=O)N[C@@H](Cc4ccsc4)C(=O)N[C@@H](Cc4csc5ccccc45)C(=O)N[C@@H](CCC(N)=O)C(N)=O)(C3)NC(=O)[C@H](CC(N)=O)NC(=O)[C@H](Cc3ccccc3)NC(=O)[C@H](C)NC(=O)[C@H](C)NC(=O)[C@H]([C@@H](C)O)NC(=O)[C@H](CC(N)=O)NC1=O)NC(=O)[C@H](C)NC(=O)[C@H](CC(=O)O)NC2=O (some centres unmarked) [I-2002]" recorded_result=6.21
molecule="CC(=O)N1CCC[C@]12CC=CCCCC1(CCCC=CCCCOC(=O)N3CC[C@@](C(=O)N[C@@H](Cc4ccsc4)C(=O)N[C@@H](Cc4csc5ccccc45)C(=O)N[C@@H](CCC(N)=O)C(N)=O)(C3)NC(=O)[C@H](CC(N)=O)NC(=O)[C@H](Cc3ccccc3)NC(=O)[C@H](C)NC(=O)[C@H](C)NC(=O)[C@H](CCCNC(=N)N)NC(=O)[C@H](CC(N)=O)NC1=O)NC(=O)[C@H](CC(C)(C)C)NC(=O)[C@H](CC(=O)O)NC2=O (some centres unmarked) [I-1892]" recorded_result=5.85
molecule="CC(=O)N1CCC[C@]12CC=CCCCC1(CCCC=CCCCOC(=O)N3CC[C@@](C(=O)N[C@@H](Cc4ccccc4Cl)C(=O)N[C@@H](Cc4csc5ccccc45)C(=O)N[C@H](CO)[C@@H](C)O)(C3)NC(=O)[C@H]([C@@H](C)O)NC(=O)[C@H](Cc3ccccc3)NC(=O)[C@H](C)NC(=O)[C@H](C)NC(=O)[C@H](CN(CC(=O)O)CC(F)(F)F)NC(=O)[C@H](CC(=O)O)NC1=O)NC(=O)[C@H](CC(C)(C)C)NC(=O)[C@H](CC(=O)O)NC2=O (some centres unmarked) [I-1241]" recorded_result=7.72

###

IC50 values, listed per item
Molecular target: full-length beta-Catenin (Uniprot ID P35222) (Homo sapiens)
Construct: 10 nM full-length beta-Catenin (Uniprot ID P35222)
Sequence (P35222 1-781): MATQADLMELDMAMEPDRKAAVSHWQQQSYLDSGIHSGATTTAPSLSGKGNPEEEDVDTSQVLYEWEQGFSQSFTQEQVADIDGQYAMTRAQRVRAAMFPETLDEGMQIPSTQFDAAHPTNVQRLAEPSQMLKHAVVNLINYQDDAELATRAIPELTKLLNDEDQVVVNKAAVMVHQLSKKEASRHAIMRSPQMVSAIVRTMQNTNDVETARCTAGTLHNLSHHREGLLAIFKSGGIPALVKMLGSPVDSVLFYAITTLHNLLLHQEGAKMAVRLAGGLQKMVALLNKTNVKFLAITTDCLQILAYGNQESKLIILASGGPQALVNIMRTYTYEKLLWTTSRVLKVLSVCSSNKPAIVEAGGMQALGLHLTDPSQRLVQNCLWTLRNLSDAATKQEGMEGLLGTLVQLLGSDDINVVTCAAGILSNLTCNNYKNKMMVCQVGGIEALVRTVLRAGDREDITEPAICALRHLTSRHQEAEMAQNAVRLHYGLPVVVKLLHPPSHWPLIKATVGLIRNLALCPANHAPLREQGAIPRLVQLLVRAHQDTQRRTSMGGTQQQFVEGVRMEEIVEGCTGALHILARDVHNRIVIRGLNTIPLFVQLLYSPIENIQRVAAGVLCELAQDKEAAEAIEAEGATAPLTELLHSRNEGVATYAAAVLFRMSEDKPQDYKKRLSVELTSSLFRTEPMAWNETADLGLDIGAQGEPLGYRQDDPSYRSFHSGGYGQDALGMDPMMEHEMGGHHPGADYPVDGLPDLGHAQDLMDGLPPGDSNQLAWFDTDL
Assay: Fluorescence polarization IC50 (beta-catenin / 5FAM-TCF4 10-53 competition)
Assay type: binding
Conditions: fluorescence polarization; read-out: beta-Catenin FP IC50
Measurement Kind: IC50 (nM)

compound="CC(=O)N1CCC[C@]12CC=CCCCC1(CCCC=CCCCCCC[C@@](C)(C(=O)N[C@@H](Cc3ccccc3)C(=O)N[C@@H](Cc3csc4ccccc34)C(=O)N[C@@H](CCC(N)=O)C(N)=O)NC(=O)[C@H](CCC(N)=O)NC(=O)[C@H](Cc3ccccc3)NC(=O)[C@H](C)NC(=O)[C@H](C)NC(=O)[C@H](CCC(=O)O)NC(=O)[C@H](CC(=O)O)NC1=O)NC(=O)[C@H](Cc1ccccc1)NC(=O)[C@H](CC(=O)O)NC2=O (some centres unmarked)" measurement_kind=IC50 units_of_measure=nM recorded_result=13
compound="CC(=O)N1CCC[C@]12CC=CCCCC1(CCCC=CCCCOC(=O)N3CC[C@@](C(=O)N[C@@H](Cc4ccsc4)C(=O)N[C@@H](Cc4csc5ccccc45)C(=O)N[C@@H](CCC(N)=O)C(N)=O)(C3)NC(=O)[C@H](CC(C)C)NC(=O)[C@H](Cc3ccccc3)NC(=O)[C@H](C)NC(=O)[C@H](C)NC(=O)[C@H](CNc3ccc([N+](=O)[O-])c(C(=O)O)c3)NC(=O)[C@H](CC(=O)O)NC1=O)NC(=O)[C@H](CC(C)(C)C)NC(=O)[C@H](CC(=O)O)NC2=O (some centres unmarked)" measurement_kind=IC50 units_of_measure=nM recorded_result=227

###

Molecular target: beta-catenin/TCF4 engagement (Homo sapiens)
Construct: expressed in transfected cells; host or cells: HEK293
Assay: Nano-BRET target engagement assay (B-cat-Halo & TCF4-Luc in HEK293 cells)
Format: cell-based
Details: read-out: NanoBRET Abs IC50
pIC50: −log10 of the molar value.
Measurement Kind: pIC50

compound="CC(=O)N1CCC[C@]12CC=CCCCC1(CCCC=CCCCOC(=O)N3CC[C@@](C(=O)N[C@@H](Cc4ccsc4)C(=O)N[C@@H](Cc4csc5ccccc45)C(=O)N[C@@H](Cc4c[nH]cn4)C(N)=O)(C3)NC(=O)[C@H](CCC(N)=O)NC(=O)[C@H](Cc3ccccc3)NC(=O)[C@H](C)NC(=O)[C@H](C)NC(=O)[C@H](CC(=O)O)NC(=O)[C@H](CC(=O)O)NC1=O)NC(=O)[C@H](CC(C)(C)C)NC(=O)[C@H](CC(=O)O)NC2=O (some centres unmarked) [I-772]" measurement_kind=pIC50 qualifier=< recorded_result=4.70
compound="C#CCOCCOCCC(=O)NCCCC[C@H](NC(=O)[C@H](CCC(N)=O)NC(=O)[C@H](Cc1csc2ccccc12)NC(=O)[C@H](Cc1ccsc1)NC(=O)[C@]12CCN(C1)C(=O)OCCCC=CCCCC1(CCCC=CC[C@]3(CCCN3C(C)=O)C(=O)N[C@@H](CC(=O)O)C(=O)N[C@@H](CC(C)(C)C)C(=O)N1)C(=O)N[C@@H](CC(=O)O)C(=O)N[C@@H](CC(=O)O)C(=O)N[C@@H](C)C(=O)N[C@@H](C)C(=O)N[C@@H](Cc1ccccc1)C(=O)N[C@@H](CC(N)=O)C(=O)N2)C(N)=O (some centres unmarked)" measurement_kind=pIC50 qualifier== recorded_result=4.65
